Biological target: Cst6 (UniProt P40535)
Sequence (P40535 whole entry): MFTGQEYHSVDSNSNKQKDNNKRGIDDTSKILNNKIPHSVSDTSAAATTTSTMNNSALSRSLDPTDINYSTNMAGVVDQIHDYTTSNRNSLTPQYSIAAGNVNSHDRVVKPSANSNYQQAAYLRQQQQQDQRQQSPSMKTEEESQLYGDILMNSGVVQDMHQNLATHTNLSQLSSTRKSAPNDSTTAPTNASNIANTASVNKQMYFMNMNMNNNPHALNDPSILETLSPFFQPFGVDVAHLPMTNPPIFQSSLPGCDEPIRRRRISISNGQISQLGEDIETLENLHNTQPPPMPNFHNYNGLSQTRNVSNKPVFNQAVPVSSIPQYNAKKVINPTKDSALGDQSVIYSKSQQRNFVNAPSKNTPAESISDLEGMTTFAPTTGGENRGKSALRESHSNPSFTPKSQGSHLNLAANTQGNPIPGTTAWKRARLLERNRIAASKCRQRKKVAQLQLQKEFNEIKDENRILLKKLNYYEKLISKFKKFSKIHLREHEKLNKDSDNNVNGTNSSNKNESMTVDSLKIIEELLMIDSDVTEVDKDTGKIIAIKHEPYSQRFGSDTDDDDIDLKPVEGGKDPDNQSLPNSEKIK
Assay: PBM E-score (8-mer binding enrichment) (E-score (-0.5 to 0.5)); higher = stronger / more preferred TF binding
Settings: protein concentration: 200 nM; construct: GST-DNA-binding domain
Whole data set: some 33,000 sequences, median “E-score (-0.5 to 0.5)” near -0.016, cut for the highest 2% near 0.31. This excerpt belongs to a sample that is enriched for the highest values.
Response key: satisfied means PBM E-score >= 0.1; not satisfied means PBM E-score < 0.1.

chain	classAssignment
AAACCCGT	not satisfied
CACGGCGC	satisfied
ACGCTGGC	not satisfied
TCCACCAA	not satisfied
CTTTAGAA	not satisfied
ATATCATC	satisfied
GAGGAGGA	not satisfied
AGTGATGC	satisfied
GATGATCC	not satisfied
CGCGCGGA	satisfied
GTGACGCA	satisfied
AAGATGTA	satisfied
TACTGGCA	not satisfied
CGATATCA	satisfied

====

Molecular target: Cst6 (UniProt P40535)
Assay: PBM E-score (8-mer binding enrichment) (E-score (-0.5 to 0.5)); higher = stronger / more preferred TF binding
Conditions: protein concentration: 200 nM; construct: GST-DNA-binding domain
The full ranking holds about 33,000 sequences; the median of “E-score (-0.5 to 0.5)” is about -0.016, and the highest 2% start at about 0.31. This is one part of a sample in which the highest values are shown more often than they occur.
Entries annotated with measured PBM E-score
attributeMeasured: PBM E-score

chain	attributeMeasured	observedMeasurement
AATGATGG	PBM E-score	0.186
CAACGTCG	PBM E-score	0.0638
TCGTAAGA	PBM E-score	0.00239
GATGATTA	PBM E-score	0.2
AGGTTCCA	PBM E-score	-0.124
AGGATCAG	PBM E-score	-0.266
ACGTACGC	PBM E-score	0.229
GGCTCCCC	PBM E-score	-0.226
GCATTGTA	PBM E-score	0.047
CAGGCTAC	PBM E-score	-0.249
CGGTCACC	PBM E-score	0.0497
ACGTACGT	PBM E-score	0.311
CTCATCCA	PBM E-score	0.0578
CCGTAAGC	PBM E-score	-0.0303
AAACGTCT	PBM E-score	0.14
CGACAGAG	PBM E-score	-0.315
AACAATCA	PBM E-score	0.287
CATGATCA	PBM E-score	0.231
AAAGATGT	PBM E-score	0.13
CAACGTCA	PBM E-score	0.471
ACTGATGA	PBM E-score	0.173
ACGTACGG	PBM E-score	0.149
CAACCACC	PBM E-score	-0.251

====

Biological target: Cst6 (UniProt P40535)
Test: PBM E-score (8-mer binding enrichment) (E-score (-0.5 to 0.5)); higher = stronger / more preferred TF binding
Settings: protein concentration: 200 nM; construct: GST-DNA-binding domain
Whole data set: some 33,000 sequences, median “E-score (-0.5 to 0.5)” near -0.016, cut for the highest 2% near 0.31. The full list was thinned out, with the highest values kept by preference.
Response key: T means PBM E-score >= 0.2; F means PBM E-score < 0.2.

chain	classAssignment
ATGATATG	T
AAGTTAAT	T
CTACGTGA	F
ATATTTAA	T
ACAAAAAC	F
CTACTCCC	F
ATAACGTG	T
ATTTCACG	F
CAAACGTC	F
GCAAATGC	F
AGCTACTC	F
ATACGTCG	T
CTATTAAA	F
CTACGTCA	T
AGAACGTC	F
ATAACGAA	T
CGGCGCGC	T
AAAAAAAG	T
CTGACGTC	T
GTAACGTA	T
AGACGTTA	F
CATCATTC	T
ATACGTCA	T
CCAAAAAA	T
TCAGGGAA	F
TATCATAA	F
CATCATTA	T
GGCACGTA	F
CTGATATA	F

====

Target: Cst6 (UniProt P40535)
Experiment: PBM E-score (8-mer binding enrichment) (E-score (-0.5 to 0.5)); higher = stronger / more preferred TF binding
Settings: protein concentration: 200 nM; construct: GST-DNA-binding domain
Whole data set: some 33,000 sequences, median “E-score (-0.5 to 0.5)” near -0.016, cut for the highest 2% near 0.31. The full list was thinned out, with the highest values kept by preference.

chain	testSystem	PBM E-score
CAGGGAAG	Cst6 (UniProt P40535)	-0.244
AATTATCA	Cst6 (UniProt P40535)	0.356
GGTCATTA	Cst6 (UniProt P40535)	0.178

====

Target: Cst6 (UniProt P40535)
Experiment: PBM E-score (8-mer binding enrichment) (E-score (-0.5 to 0.5)); higher = stronger / more preferred TF binding
Settings: protein concentration: 200 nM; construct: GST-DNA-binding domain
The full ranking holds about 33,000 sequences; the median of “E-score (-0.5 to 0.5)” is about -0.016, and the highest 2% start at about 0.31. This excerpt belongs to a sample that is enriched for the highest values.

chain	PBM E-score
AGTTGCGA	0.0793
ATTAAAAC	0.213
TTCATAAA	0.212
TTCCAAAA	0.0844
CATCATAA	0.291
AATACGCC	0.104
AAACAGGA	0.0722
AATATGAT	0.233
CATATGAC	0.366
CATACGTA	0.383
CAACTGAC	0.0886
AGATATCA	0.198
CATGAGGG	-0.142
AGTCCCCC	-0.43
GATACGTA	0.332
ATCATTTG	0.165
AATATGTC	0.319
CACGAAAA	0.247
TAACTACA	0.0421
GCTATGAC	0.332
ACGTGACA	0.248
AATACGAC	0.0982
CACAACCA	0.124
GTCATAAA	0.331
CTTCGAAG	-0.21
CCTATGAC	0.221
AATATGAC	0.35
AATCATGA	0.338
TAATATCA	0.319
AATCATGG	0.0769
CATCATAC	0.374
CATCATAG	0.326
ATCCCGGA	-0.249
ATCATAGA	0.246
GACGAAAA	0.329
AACAAATA	0.242
CCGTGACA	0.15
GACATTTA	0.115
ACGTGACT	0.00931
ACTCTTGA	-0.103
CCAAGCCG	-0.182
ACGTGACG	0.451
AGCGGCAT	0.273
ACCATGAC	0.395
CATCATGG	0.249
AAATATCA	0.139
ATGACATC	0.478
CACCCTCA	-0.212
CCCATGAC	0.336
AACAAGTT	0.0438
ATTGAGCC	0.197
GCTTCGAA	-0.0925
ATCATATA	0.299
GTCATTTA	0.368
ACCATGAA	0.0849
AGCCGATA	-0.0664
CAATGGCC	-0.314
TTCTGCAA	0.138
ATTTCGGG	0.0105
GTCATAGA	0.411
AATACGTA	0.344
ATTAAAAA	0.323
ATGACAAC	0.302
AATATGTG	0.25
AATACGCA	0.124
CATCATGC	0.362
CATACGCA	0.147
TCGCTCAA	-0.091
GATACGGA	0.111
TGATATAA	0.323
CTCATATA	-0.0189
AACTGCTC	-0.0302
GCGCTGCA	-0.0118
CGGACATC	-0.196

====

Target: Cst6 (UniProt P40535)
Assay: PBM E-score (8-mer binding enrichment) (E-score (-0.5 to 0.5)); higher = stronger / more preferred TF binding
Conditions: protein concentration: 200 nM; construct: GST-DNA-binding domain
Whole data set: some 33,000 sequences, median “E-score (-0.5 to 0.5)” near -0.016, cut for the highest 2% near 0.31. What follows is part of a selection rich in the highest values, with near analogues and random picks from the rest.
Response key: T means PBM E-score >= 0.05; F means PBM E-score < 0.05.

chain	classAssignment
CTGACATA	T
GGGAAAGA	F
AAATGATG	T
ACTGGTTA	F
AGTCTTCA	F
AGTGACGA	T
CGTTGTCC	T
AACGGTTG	T
CAATGATC	T
ATGACAGG	T
AAAATCTC	F
GCGCGCGC	T
ATTACACA	T
ATTACACG	T
CCGCGCGC	T
AGTACATC	F
CCAAGGAG	F
AATTTACG	T
GGTGACCA	F
ACGAGTAA	T
GCAGCGCC	F
CAATGATG	T
ACGCGCGC	T
AAGACATA	T
GGGACATA	F
GAGACATA	F
CTTATTAA	T
CAATTGTC	F
CCGCGCGG	T
ATGTTGAA	T
GCTTGATA	T
CAGACATA	T
AGTGACCA	F
GTGACATA	T
